- Tested on: Staphylococcus aureus
- PROTOCOL: Antibacterial activity against methicillin-sensitive Staphylococcus aureus 15 after 18 hrs by broth microdilution method
- Format: functional, organism-based
- CONDITION_INFO: Staphylococcus aureus, 15, 18 h; read-out: IC50
Measured MIC, listed per entry for reference.
API: value field is a number in µM; no unit string.

Examples with answers:
input: Recorded MIC for CCCc1c(Cl)c(OC)cc2c1Oc1c(Cl)c(O)c(Cl)c(CCC)c1C(=O)O2 , please?
output: 4

input: # input molecule: CCCc1cc(O)c(Cl)c2c1Oc1c(Cl)c(O)c(Cl)c(CCC)c1C(=O)O2 ; wanted: its MIC
output: 4

Consider the record given below.
input: Looking for the measured MIC of CCCc1c(Cl)c(O)cc2c1Oc1c(Cl)c(O)c(Cl)c(CCC)c1C(=O)O2 , can you help?
output: 4

###

Each record here notes measured MIC.
- Tested on: Enterococcus faecalis
- PROTOCOL: Antibacterial activity against vancomycin-resistant Enterococcus faecalis ATCC 51299 after 18 hrs by broth microdilution method
- Type: functional, organism-based
- CONDITION_INFO: ATCC 51299, 18 h, read-out: IC50

input: Checklist item: MIC tested on Enterococcus faecalis, entry CCCc1cc(O)cc2c1Oc1c(Cl)c(O)c(Cl)c(CCC)c1C(=O)O2 , value?
output: > 256 µM

input: Tell me reported MIC for CCCc1cc(O)cc2c1Oc1c(Cl)c(O)cc(CCC)c1C(=O)O2 , tested with Enterococcus faecalis.
output: > 256 µM

Others:
input: I'm curious: which MIC was measured for CCCc1c(Cl)c(OC)cc2c1Oc1c(Cl)c(O)c(Cl)c(CCC)c1C(=O)O2 tested on Enterococcus faecalis?
output: > 256 µM
